Provenance of the data: patent US20250332276A1

Test: 3-Day Cell Viability Assay (cytotoxicity)
Property measured: CC50 at 3 day

Please report the recorded CC50 at 3 day for CCC(C(=O)Nc1sc(C(=O)NCCNC(=O)[C@@H](NC(=O)[C@@H](NC(=O)[C@@H](N)C(C)C)C(C)C)C(C)C)c(C)c1C(=O)OC)c1ccc(F)cc1 (stereo partly shown) .
> 100 µM

---

Biological target: mD4 (Molluscum contagiosum virus)
Assay: mD4 dependent processive DNA synthesis in vitro (mD4 anti-processivity)
Type: biochemical
Details: read-out: IC50, mD4 dependent processive DNA synthesis in vitro
Property measured: IC50 (µM)
Record the value in µM, omitting the unit from your answer.

Please provide the recorded IC50 for CCC(C(=O)Nc1sc(C(=O)NCCNC(=O)[C@@H](NC(=O)[C@@H](NC(=O)[C@@H](N)C(C)C)C(C)C)C(C)C)c(C)c1C(=O)OC)c1ccc(F)cc1 (stereo partly shown) , tested on mD4 (Molluscum contagiosum virus).
5

---

Biological target: mD4 (Molluscum contagiosum virus, UniProt Q98260)
Sequence (Q98260 1-226): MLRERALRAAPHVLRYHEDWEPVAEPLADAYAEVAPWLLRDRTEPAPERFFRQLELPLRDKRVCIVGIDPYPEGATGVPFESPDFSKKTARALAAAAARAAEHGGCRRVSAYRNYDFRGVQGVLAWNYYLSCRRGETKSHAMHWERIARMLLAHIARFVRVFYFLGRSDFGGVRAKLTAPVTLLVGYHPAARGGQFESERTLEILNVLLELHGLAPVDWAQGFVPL
Property measured: Kd (nM)
Answer format: numeric, nM implied, no suffix.

# get_value(readout= Kd, system= mD4 (Molluscum contagiosum virus, UniProt Q98260)) for CCC(C(=O)Nc1sc(C(=O)NCCNC(=O)[C@@H](NC(=O)[C@@H](NC(=O)[C@@H](N)C(C)C)C(C)C)C(C)C)c(C)c1C(=O)OC)c1ccc(F)cc1 (stereo partly shown)
2840

---

Target: mD4 (Molluscum contagiosum virus, UniProt Q98260)
Test: mD4 dependent processive DNA synthesis in vitro (mD4 anti-processivity)
Assay type: biochemical
Settings: Table 2; read-out: IC50 (μM), mD4 anti-processivity activity
*1 amine or outer side, *2 acyl side, *3 side chain or, on linkers, in order; H or OH if unused. Where a SMILES comes first, the peptide text is derived from it. The star is where a group is joined. X1 = CCC(C(=O)Nc1sc(C(=O)*)c(C)c1C(=O)OC)c1ccc(C(F)(F)F)cc1; Ethylenediamine = C(CN[*:2])N[*:1]; Boc = CC(C)(C)OC(=O)*
Property measured: IC50 (µM)
Report as a plain number; the unit µM is understood.

Sample answers from the record:
>>> endpoint_result("CCC(C(=O)Nc1sc(C(=O)NCCNC(=O)[C@@H](NC(=O)[C@@H](NC(=O)OC(C)(C)C)C(C)C)C(C)C)c(C)c1C(=O)OC)c1ccc(F)cc1 (stereo partly shown)")
20
>>> endpoint_result("CCC(C(=O)Nc1sc(C(=O)NCCNC(=O)[C@H](NC(=O)[C@H](NC(=O)[C@H](N)C(C)C)C(C)C)C(C)C)c(C)c1C(=O)OC)c1ccc(F)cc1 (stereo partly shown)")
3
>>> endpoint_result("CCC(C(=O)Nc1sc(C(=O)NCCNC(=O)[C@@H](NC(=O)[C@@H](NC(=O)[C@@H](NC(=O)OC(C)(C)C)C(C)C)C(C)C)C(C)C)c(C)c1C(=O)OC)c1ccc(F)cc1 (stereo partly shown)")
10.7

// IC50 lookup, key: CCC(C(=O)Nc1sc(C(=O)NCCNC(=O)[C@@H](NC(=O)[C@@H](NC(=O)[C@@H](NC(=O)[C@@H](NC(=O)OC(C)(C)C)C(C)C)C(C)C)C(C)C)C(C)C)c(C)c1C(=O)OC)c1ccc(C(F)(F)F)cc1 (stereo partly shown) [Compound 26] (Boc-VVVV-{Ethylenediamine-X1})
4.1
